- Tested target: recombinant human plasminogen activator inhibitor-1 (PAI-1) (Homo sapiens)
- Construct: purchased Molecular Innovations, Royal Oak, Mich
- Measurement protocol: Primary Screen for the PAI-1 Inhibition
- Assay type: biochemical
- Condition: 25 μM test compound; read-out: % Inhib. 25 μM
Value kind: inhibition at 25 µM (%)

Compound | Endpoint unit | inhibition at 25 µM
O=C(O)COc1ccc2cc(NC(=O)C3(c4ccc(Cl)cc4)CCCC3)ccc2c1 [Example 75] | % | 1

A. CCCCc1oc2ccccc2c1C(=O)NCc1ccc2c(-c3ccccc3)c(OCC(=O)O)ccc2c1 [Example 28]
B. CN(Cc1ccc2c(Br)c(OC(Cc3ccccc3)C(=O)O)ccc2c1)C(=O)c1ccc(Oc2cc(Cl)cc(Cl)c2)o1 (stereo not shown) [Example 64]
Consider entries A and B . Which has the numerically lower inhibition at 25 µM? Output the label that corresponds to your choice.
A

###

- Tested target: recombinant human plasminogen activator inhibitor-1 (PAI-1) (Homo sapiens)
- Construct: purchased Molecular Innovations, Royal Oak, Mich
- Measurement protocol: Primary Screen for the PAI-1 Inhibition
- Assay type: biochemical
- Condition: 100 μM test compound; read-out: % Inhib. 100 μM
Value kind: inhibition at 100 µM (%)

Molecule | Reported result
CCCc1c(C(=O)NCc2ccc3c(Br)c(OCC(=O)O)ccc3c2)cnn1-c1ccccc1 | 92
CCCCc1oc2ccccc2c1C(=O)N(CC)Cc1ccc2cc(OCc3nnn[nH]3)ccc2c1 | 72
CCCCc1oc2ccccc2c1C(=O)N(CCCC)Cc1ccc2c(Br)c(OCc3nnn[nH]3)ccc2c1 | 91
CCCCc1oc2ccccc2c1C(=O)NCc1ccc2c(-c3ccccc3)c(OCC(=O)O)ccc2c1 | 100

###

Overview of recorded melting point for various compounds

Reference set (3 entries):
Compound | Value kind | Reported result
CCCc1c(C(=O)N(C)Cc2ccc3c(Br)c(OCc4nnn[nH]4)ccc3c2)cnn1-c1ccccc1 | melting point | 75 to 85 °C
CN(Cc1ccc2c(Br)c(OC(Cc3ccccc3)C(=O)O)ccc2c1)C(=O)c1oc2ccccc2c1CCc1ccccc1 (stereo not drawn) | melting point | 87 to 90 °C
CCCCc1oc2ccccc2c1C(=O)Nc1ccc2cc(OCc3nn[nH]n3)ccc2c1 | melting point | 194 to 198 °C

Note to self: melting point recorded for CCCCc1c(C(=O)N(C)Cc2ccc3c(Br)c(OCc4nnn[nH]4)ccc3c2)c2ccccc2n1C was 147 to 149 °C

Given item CN(Cc1ccc2c(Br)c(OCc3nnn[nH]3)ccc2c1)C(=O)c1cn(Cc2ccccc2)c2ccccc12 , the value recorded as its melting point is 197 to 198 °C

Lab note: Cc1c(C(=O)N(C)Cc2ccc3c(Br)c(OCc4nnn[nH]4)ccc3c2)oc2ccccc12 gave melting point of 164 to 166 °C

Form: compound = CCCCc1oc2ccccc2c1C(=O)NCc1ccc2c(-c3ccccc3)c(OCC(=O)O)ccc2c1 ; melting point = 180 to 183 °C

Documented melting point of Cc1c(C(=O)NCc2ccc3c(Br)c(OC(Cc4ccccc4)C(=O)O)ccc3c2)oc2ccccc12 (stereo not drawn) : 110 to 113 °C

So for CCCCc1oc2ccccc2c1C(=O)NCc1ccc2c(-c3ccccc3)c(OCc3nnn[nH]3)ccc2c1 , the logged melting point turned out to be 192 to 196 °C

###

- Tested target: recombinant human plasminogen activator inhibitor-1 (PAI-1) (Homo sapiens, UniProt P05121)
- Construct: purchased Molecular Innovations, Royal Oak, Mich
- Sequence (P05121 24-402): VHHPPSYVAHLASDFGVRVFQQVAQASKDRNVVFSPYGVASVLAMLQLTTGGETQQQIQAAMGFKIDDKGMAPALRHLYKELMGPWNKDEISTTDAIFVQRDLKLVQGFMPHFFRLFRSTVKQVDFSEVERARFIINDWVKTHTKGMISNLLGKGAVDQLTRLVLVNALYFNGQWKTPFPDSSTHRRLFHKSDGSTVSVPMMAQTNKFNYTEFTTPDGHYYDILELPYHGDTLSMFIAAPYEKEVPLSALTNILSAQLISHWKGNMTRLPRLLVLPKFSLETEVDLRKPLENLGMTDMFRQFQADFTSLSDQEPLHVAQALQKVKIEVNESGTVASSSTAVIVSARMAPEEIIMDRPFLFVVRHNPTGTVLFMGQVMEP
- Measurement protocol: Primary Screen for the PAI-1 Inhibition
- Type: biochemical
- Condition: 100 μM test compound; read-out: % Inhib. 100 μM
- Method: Test compounds are dissolved in DMSO at a final concentration of 10 mM, then diluted 100× in physiologic buffer. […] Following the second incubation, Spectrozyme-tPA (American Diagnostica, Greenwich, Conn.), a chromogenic substrate for tPA, is added and absorbance read at 405 nm at 0 and 60 minutes. […]
Value kind: inhibition at 100 µM (%)

Answered examples (3):
Molecule | Value kind | Reported result
O=C(O)COc1ccc2cc(CNC(=O)c3cc(-c4ccc(Cl)cc4)oc3C(F)(F)F)ccc2c1 [Example 11] | inhibition at 100 µM | 32
CN(Cc1ccc2c(Br)c(OCc3nnn[nH]3)ccc2c1)C(=O)c1oc2ccccc2c1CCc1ccccc1 [Example 45] | inhibition at 100 µM | 17
CCCCc1c(C(=O)N(C)Cc2ccc3c(Br)c(OCC(Cc4ccccc4)C(=O)O)ccc3c2)oc2ccccc12 (stereo not drawn) [Example 40] | inhibition at 100 µM | 96

1. O=C(O)COc1ccc2cc(CNC(=O)c3cnn(-c4ccc(Cl)cc4)c3C(F)(F)F)ccc2c1 [Example 14]
2. CC(C)(C)c1cc(C(=O)NCc2ccc3c(Br)c(OC(Cc4ccccc4)C(=O)O)ccc3c2)cc(C(C)(C)C)c1 (stereo not drawn) [Example 56]
Param pair: 1 , 2 . Output: the one whose inhibition at 100 µM is numerically greater. // return label of chosen record
2

Values compiled from patent US6589970B2.
